test system: Enterococcus faecalis; test: Antibacterial activity against Enterococcus faecalis assessed as bacterial growth inhibition incubated for 24 hrs; assay type: functional, organism-based
# IC50 per entry
// units = µM; emit number, no label

C=C1CCC2[C@](C)(CO)C(=O)CC[C@@]2(C)[C@@H]1C/C=C1/C(=O)OC[C@@H]1Oc1cccc2cccnc12 (some centres not stated); 9.1

Consider now this further molecule.
INPUT: // fetch IC50 for C=C1CCC2[C@](C)(CO)[C@H](O)CC[C@@]2(C)[C@@H]1C/C=C1/C(=O)OC[C@@H]1Oc1cccc2cccnc12 (some centres not stated) ; system: Enterococcus faecalis
OUTPUT: 6.3

* * *

experiment: Antiproliferative activity against human HCT cell line assessed as cell growth inhibition measured after 48 hrs by MTT assay; format: functional, cell-based
TEST READOUT: IC50 (nM)
// units = nM; emit number, no label

INPUT: Find the measured IC50 of CC1=C2[C@H]3O[C@]34CC[C@@H]3[C@](C)(COC(=O)c5ccccc5)[C@H](OC(=O)c5ccccc5)CC[C@@]3(C)[C@@H]4[C@H]3O[C@@]23OC1=O and report it.
OUTPUT: 940

* * *

system: HCT-116; test: Antiproliferative activity against human HCT-116 cells assessed as cell growth inhibition incubated for 72 hrs by CCK8 assay; format: functional, cell-based; conditions: HCT-116, 72 h
TEST READOUT: IC50 (nM)
// units = nM; emit number, no label

INPUT: Find the measured IC50 of C=C1CC[C@H]2[C@@](C)(C=CC(=O)[C@@]2(C)COC(=O)c2ccccc2)[C@@H]1C/C=C1/C(=O)OC[C@H]1O and report it.
OUTPUT: 2490

* * *

assay: Inhibition of NF-kappa-B signaling pathway in human HeLa cells assessed as decrease in phosphorylated NF-kappaB p65 level treated for 4 hrs by Western blot analysis; format: cell-based
TEST READOUT: EC50 (nM)
// units = nM; emit number, no label

INPUT: Find the measured EC50 of C=C1CC[C@@H]2[C@](C)(CO)[C@H](O)CC[C@@]2(C)[C@@H]1C/C=C1/C(=O)OC[C@@H]1Oc1ccc([N+](=O)[O-])cc1OC and report it.
OUTPUT: 2000

* * *

experiment: Antiproliferative activity against human NTUB1 cells assessed as cell growth inhibition measured after 48 hrs by MTT assay; format: functional, cell-based; details: NTUB1, 48 h
TEST READOUT: IC50 (nM)
// units = nM; emit number, no label

INPUT: Find the measured IC50 of CC1=C2[C@H]3O[C@]34CC[C@@H]3[C@](C)(COC(=O)c5ccccc5)[C@H](OC(=O)c5ccccc5)CC[C@@]3(C)[C@@H]4[C@H]3O[C@@]23OC1=O and report it.
OUTPUT: 550

* * *

tested on: MCF7; assay: Cytotoxicity against human MCF7 cells assessed as cell growth inhibition by SRB assay; assay type: functional; details: read-out: ED50 (the source's name)
TEST READOUT: EC50 (µM)
// units = µM; emit number, no label

INPUT: Find the measured EC50 of C=C1CC[C@@H]2[C@](C)(CO[Si](C)(C)C(C)(C)C)[C@H](OC(C)=O)CC[C@@]2(C)[C@@H]1CC(OC(C)=O)C1=CCOC1=O (stereo partly specified) and report it.
OUTPUT: 2.13
